- System: Bel-7402
- test-protocol: Cytotoxicity in human Bel7402 cells assessed as reduction in cell viability incubated for 48 hrs by MTT assay
- Assay type: functional, cell-based
- condition-label: Bel-7402, 48 h
Please note: IC50 exactly at 2 µM is F. Only values below 2 µM get T.

molecule: CC[C@@]1(OC(=O)CNC(=O)CCC(=O)O)C(=O)OCc2c1cc1n(c2=O)Cc2cc3c4c(ccc3nc2-1)OC(C(C)C)NC4=O (some centres not stated)
assigned-class: F
--
molecule: CC[C@@]1(O)C(=O)OCc2c1cc1n(c2=O)Cc2cc3c(CN(C)C)c(O)ccc3nc2-1
assigned-class: F
--
molecule: CC[C@@]1(O)C(=O)OCc2c1cc1n(c2=O)Cc2cc3c(ccc4ocnc43)nc2-1
assigned-class: F
--
molecule: CC[C@@]1(OC(=O)CNC(=O)CCC(=O)O)C(=O)OCc2c1cc1n(c2=O)Cc2cc3c(ccc4oc(C(C)C)nc43)nc2-1
assigned-class: T
--
molecule: CC[C@@]1(OC(=O)CNC(=O)CCC(=O)O)C(=O)OCc2c1cc1n(c2=O)Cc2cc3c(ccc4ocnc43)nc2-1
assigned-class: T
--
molecule: CC[C@@]1(O)C(=O)OCc2c1cc1n(c2=O)Cc2cc3c(ccc4oc(C(C)C)nc43)nc2-1
assigned-class: F
